Property: A2a selectivity (A2a A1 binding selectivity); scope: individual compounds
biological target: human A1 receptor (Homo sapiens (Human), UniProt P30542); assay: A1 competition binding assay using Scintillation Proximity technology; selectivity = A1 binding Ki / A2a binding Ki; conditions: A1 binding Ki divided by A2a binding Ki
Sequence (P30542 whole entry): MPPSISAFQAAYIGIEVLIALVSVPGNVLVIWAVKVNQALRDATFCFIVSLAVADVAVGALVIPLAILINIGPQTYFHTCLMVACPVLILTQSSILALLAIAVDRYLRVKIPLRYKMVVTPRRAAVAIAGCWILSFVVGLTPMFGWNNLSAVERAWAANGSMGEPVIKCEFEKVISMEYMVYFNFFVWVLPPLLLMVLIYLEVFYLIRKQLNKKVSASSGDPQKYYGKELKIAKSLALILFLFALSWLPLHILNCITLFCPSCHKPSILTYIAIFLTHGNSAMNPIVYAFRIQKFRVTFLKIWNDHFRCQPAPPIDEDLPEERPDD
Answer using only a numeral; do not append any unit.

Nc1nc(C(=O)NCc2cccc3cccnc23)c2cccc(C(F)(F)F)c2n1 560

Bench note, human A1 receptor (Homo sapiens (Human), UniProt P30542): entry `CS(=O)(=O)c1cccc2c(C(=O)NCc3cccc4cccnc34)nc(N)nc12` , its A2a selectivity (A2a A1 binding selectivity) = 55

Bench note, human A1 receptor (Homo sapiens (Human), UniProt P30542): entry `COc1cccc2c(C(=O)NCc3cccc(Cc4ccccc4)n3)nc(N)nc12` , its A2a selectivity (A2a A1 binding selectivity) = 42

---

Biological target: human A2a receptor (Homo sapiens (Human), UniProt P29274)
Sequence (P29274 whole entry): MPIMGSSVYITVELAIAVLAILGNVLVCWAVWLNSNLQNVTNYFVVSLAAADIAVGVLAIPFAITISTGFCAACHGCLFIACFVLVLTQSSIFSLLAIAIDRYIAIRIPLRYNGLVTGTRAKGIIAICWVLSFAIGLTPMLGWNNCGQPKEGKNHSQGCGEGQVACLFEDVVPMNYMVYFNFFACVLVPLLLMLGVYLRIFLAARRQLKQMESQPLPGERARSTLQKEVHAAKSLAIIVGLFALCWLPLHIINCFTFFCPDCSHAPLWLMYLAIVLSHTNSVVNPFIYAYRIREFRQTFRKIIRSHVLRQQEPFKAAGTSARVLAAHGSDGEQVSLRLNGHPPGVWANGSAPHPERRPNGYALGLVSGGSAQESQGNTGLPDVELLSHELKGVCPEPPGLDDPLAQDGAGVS
Experiment: A2a competition binding assay using Scintillation Proximity technology
Settings: * assay run with 1 μg of membranes versus 0.25 μg; HEK293 cells expressing the human A2a receptor
Method: Binding affinities of compounds of the invention for the human A2a receptor were determined in a competition binding assay using Scintillation Proximity technology. […] The beads were then allowed to settle to the bottom of the wells for 1 hr, after which the membrane-associated radioactivity was determined by scintillation counting in a TopCount microplate reader. Ki values were determined using the Cheng-Prusoff equation. […]
Property: log10 of Ki; scope: individual compounds
Values below are the log10 of the recorded Ki, with nM as the unit.

Look over these answered cases.
compound	log10 of Ki
Cc1ccc(-c2cccnc2CNC(=O)c2nc(N)nc3c(F)cccc23)nc1	0.96
CSc1cccc2c(C(=O)NCc3cccc4cccnc34)nc(N)nc12	0.89

Nc1nc(C(=O)NCC2CC3CCC2C3)c2cccc(F)c2n1 (centres unmarked) yielded log10 of Ki of 1.51

`COc1cccc2c(C(=O)NCc3cccc(Cc4ccccc4)n3)nc(N)nc12` yielded log10 of Ki of 0.40

`CC(C)Oc1cccc(-c2cccc(CNC(=O)c3nc(N)nc4c(F)cccc34)n2)c1` yielded log10 of Ki of 0.58

---

Biological target: human A1 receptor (Homo sapiens (Human), UniProt P30542)
Assay: A1 competition binding assay using Scintillation Proximity technology; selectivity = A1 binding Ki / A2a binding Ki
Conditions: A1 binding Ki divided by A2a binding Ki
Procedure: Binding affinities of compounds of the invention for the human A1 receptor were determined in a competition binding assay using Scintillation Proximity technology. […] The beads were then allowed to settle to the bottom of the wells for 1 hr, after which the membrane-associated radioactivity was determined by scintillation counting in a TopCount microplate reader. Ki values were determined in a similar fashion described with A2a binding. […]
// classify: if (A2a selectivity (A2a A1 binding selectivity) < 100) y else n

COc1cccc2c(C(=O)NCc3cccc(COc4ccccc4F)n3)nc(N)nc12 n
COc1cccnc1CNC(=O)c1nc(N)nc2c(OC)cccc12 n
Cc1ccc(CCNC(=O)c2nc(N)nc3c(F)cccc23)nc1 y

Q: Given `COc1cccc(CNC(=O)c2nc(N)nc3c(OC)cccc23)n1` , is recorded A2a selectivity (A2a A1 binding selectivity) strictly lower than 100?
A: y

Q: Given `COc1cccc2c(C(=O)NCc3cccc(COCC(C)C)n3)nc(N)nc12` , is recorded A2a selectivity (A2a A1 binding selectivity) strictly lower than 100?
A: y

Q: Given `COc1cccc2c(C(=O)NCc3cccc(-c4cccc(O)c4)n3)nc(N)nc12` , is recorded A2a selectivity (A2a A1 binding selectivity) strictly lower than 100?
A: y

Q: Given `[2H]C([2H])(NC(=O)c1nc(N)nc2c(OC)cccc12)c1cccc(Oc2cncc(OC)c2)n1` , is recorded A2a selectivity (A2a A1 binding selectivity) strictly lower than 100?
A: y

Q: Given `COc1cccc2c(C(=O)NCc3ncc(C)cc3C)nc(N)nc12` , is recorded A2a selectivity (A2a A1 binding selectivity) strictly lower than 100?
A: n

Q: Given `COC(=O)c1ccccc1CNC(=O)c1nc(N)nc2c(F)cccc12` , is recorded A2a selectivity (A2a A1 binding selectivity) strictly lower than 100?
A: y

Q: Given `COc1cccc2c(C(=O)NCc3nc(C)ccc3C)nc(N)nc12` , is recorded A2a selectivity (A2a A1 binding selectivity) strictly lower than 100?
A: n

Q: Given `COc1cccc2c(C(=O)NCc3nc(C(C)(C)O)ccc3C)nc(N)nc12` , is recorded A2a selectivity (A2a A1 binding selectivity) strictly lower than 100?
A: n

---

biological target: human A2a receptor (Homo sapiens (Human)); assay: A2a competition binding assay using Scintillation Proximity technology; conditions: 0.25 μg of membranes from HEK293 cells expressing the human A2a receptor
Property: Ki; scope: individual compounds
Value expressed in nM; do not type the unit.

Look over these answered cases.
Nc1nc(C(=O)NCc2ncccc2-c2ncccn2)c2cccc(F)c2n1 4
Cc1cccc(CNC(=O)c2nc(N)nc3c(Cl)cc(Cl)cc23)n1 6.5
COc1cccc2c(C(=O)NCc3cccc(CSc4nc5ccccc5[nH]4)n3)nc(N)nc12 6.3
COc1cccc2c(C(=O)NCc3cccc(CO)n3)nc(N)nc12 4.6

Alright, here's another compound for you.
`COc1cccc2c(C(=O)NCc3ccc(F)cn3)nc(N)nc12` yielded Ki of 6.6

---

Property: A2a selectivity (A2a A1 binding selectivity); scope: individual molecules
target: UniProtKB P30542; test: A1 competition binding assay using Scintillation Proximity technology; selectivity = A1 binding Ki / A2a binding Ki; conditions: A1 binding Ki divided by A2a binding Ki

Look over these answered cases.
[2H]C([2H])(NC(=O)c1nc(N)nc2c(F)cccc12)c1cccc(Oc2ccc(OCCOC)cc2)n1 32
COc1cccc2c(C(=O)NCc3cccc(F)n3)nc(N)nc12 148

Alright, here's another molecule for you.
Bench note, UniProtKB P30542: entry `CCn1cccc(CNC(=O)c2nc(N)nc3c(OC)cccc23)c1=O` , its A2a selectivity (A2a A1 binding selectivity) = 112

---

Property: Ki; scope: individual compounds
target: human A2a receptor (Homo sapiens (Human), UniProt P29274); experiment: A2a competition binding assay using Scintillation Proximity technology; settings: 0.25 μg of membranes from HEK293 cells expressing the human A2a receptor
Value expressed in nM; do not type the unit.

Look over these answered cases.
COc1cccc2c(C(=O)NCc3cccc4cccnc34)nc(N)nc12 0.2
COc1cccc2c(C(=O)NCc3cccc(C(C)C)n3)nc(N)nc12 0.2
COc1cccc2c(C(=O)NCc3cccc(COc4ccccc4F)n3)nc(N)nc12 0.2
Nc1nc(C(=O)NCC23CC4CC(CC(C4)C2)C3)c2cccc(F)c2n1 6.4
COc1cccc2c(C(=O)NCc3ncccn3)nc(N)nc12 43
[2H]C([2H])(NC(=O)c1nc(N)nc2c(OC)cccc12)c1cccc(C([2H])([2H])c2cncc(OCCOC)c2)n1 2
COc1cccc2c(C(=O)NCc3ncccc3C(F)(F)F)nc(N)nc12 2.6
Nc1nc(C(=O)NCc2cccc(COc3ccccn3)n2)c2cccc(F)c2n1 2.2

Alright, here's another compound for you.
`Nc1nc(C(=O)NCC2CCN(c3ncc(F)cn3)CC2)c2cccc(F)c2n1` yielded Ki of 8

---

biological target: human A2a receptor (Homo sapiens (Human)); experiment: A2a competition binding assay using Scintillation Proximity technology; settings: * assay run with 1 μg of membranes versus 0.25 μg; HEK293 cells expressing the human A2a receptor
Property: pKi; scope: individual compounds
// pKi here means minus log10 of the molar concentration (mol/L)

Look over these answered cases.
compound	propertyMeasured	endpointResult
[2H]C([2H])(NC(=O)c1nc(N)nc2c(OC)cccc12)c1cccc(C([2H])([2H])c2cncc(-c3ncco3)c2)n1 [Example 108]	pKi	8.68
[2H]C([2H])(NC(=O)c1nc(N)nc2c(OC)cccc12)c1cccc(N2CCN(c3ccc(OCCOC)cc3)CC2)n1 [Example 60]	pKi	8.37
COc1cccc2c(C(=O)NCc3cccc(-c4cccc(O)c4)n3)nc(N)nc12 [Example 8]	pKi	8.48
COc1cccc2c(C(=O)NCc3ccccc3-c3ccccn3)nc(N)nc12 [Example 43]	pKi	8.64

Alright, here's another compound for you.
Nc1nc(C(=O)NCc2cccc(Cc3ccccc3F)n2)c2cccc(F)c2n1 [Example 111] yielded pKi of 8.89

---

target: human A2a receptor (Homo sapiens (Human), UniProt P29274); test: A2a competition binding assay using Scintillation Proximity technology; conditions: 0.25 μg of membranes from HEK293 cells expressing the human A2a receptor
pKi: −log10 of the molar value.
// n strictly below 9 in pKi; y otherwise

molecule	assignedLabel
N#Cc1cccc2c(C(=O)NCc3cccc4cccnc34)nc(N)nc12 [Example 100]	n
Cc1ccc(CCNC(=O)c2nc(N)nc3c(F)cccc23)nc1 [Example 73]	n
COc1cccc2c(C(=O)NCc3cccc(C(C)(O)C(F)(F)F)n3)nc(N)nc12 (centres unmarked) [Example 3]	y

Q: For this molecule, is measured pKi 9 or higher? COc1cccc2c(C(=O)N[C@@H]3CCc4ccccc43)nc(N)nc12 [Example 33]
A: n
